Listed here are compounds together with their documented IC50.
Tested on: MCF-7
Experiment: MTT cytotoxicity on MCF-7 breast cancer cells
Type: cell-based
Conditions: read-out: MCF-7 IC50; MTT, mean ± SEM
Observed property: IC50 (nM)

| Compound | System | Meas value |
| --- | --- | --- |
| O=C(NNC(=S)Nc1ccccc1)c1ccc(NC(=O)C2(O)CCCCC2)cc1 [Compound 17] | MCF-7 | 82 |
| CCOC(=O)c1ccc(NC(=O)C(c2ccccc2)N(C(=O)c2ccccc2C)c2ccccc2)cc1 (centres unmarked) [Compound 3] | MCF-7 | 86 |

###

Listing of recorded Relative fold activation of caspase 3/7 by entry.
Test system: caspase 3/7
Assay: Caspase 3/7 activation assay in MDA-MB 231 cells
Assay type: cell-based
Conditions: MDA-MB 231 treated with IC50, mean ± SEM
Observed property: Relative fold activation of caspase 3/7 (fold)

| Compound | System | Meas value |
| --- | --- | --- |
| COc1cccc2c1C(=O)c1c(O)c3c(c(O)c1C2=O)C[C@@](O)(C(=O)CO)C[C@@H]3O[C@H]1C[C@H](N)[C@H](O)[C@H](C)O1 [Doxorubicin, reference compound] | caspase 3/7 | 1.272 |
| CCOC(=O)c1ccc(NC(=O)C2(OC(=O)c3ccc(NS(=O)(=O)c4ccccc4)cc3)CCCCC2)cc1 [Compound 12] | caspase 3/7 | 3.304 |
| CCOC(=O)c1ccc(N2C(=O)C(c3ccccc3)N(c3ccccc3)C2=O)cc1 (stereo not shown) [Compound 8] | caspase 3/7 | 2.945 |
| CCOC(=O)c1ccc(NC(=O)C(c2ccccc2)N(C(=O)c2ccccc2I)c2ccccc2)cc1 (stereo not shown) [Compound 4] | caspase 3/7 | 2.618 |

###

Tested on: Bcl-2
Test: Bcl-2 expression in treated MDA-MB 231 cells
Assay type: cell-based
Settings: MDA-MB 231, mean ± SEM
Listed here: items and their measured Relative fold change in Bcl-2 expression.

| Compound | Unit of measure | Relative fold change in Bcl-2 expression |
| --- | --- | --- |
| CCOC(=O)c1ccc(NC(=O)C(c2ccccc2)N(C(=O)c2ccccc2I)c2ccccc2)cc1 (stereo not shown) | fold | 0.496 |
| CCOC(=O)c1ccc(NC(=O)C2(OC(=O)c3ccc(NS(=O)(=O)c4ccccc4)cc3)CCCCC2)cc1 | fold | 0.376 |
| COc1cccc2c1C(=O)c1c(O)c3c(c(O)c1C2=O)C[C@@](O)(C(=O)CO)C[C@@H]3O[C@H]1C[C@H](N)[C@H](O)[C@H](C)O1 [Doxorubicin, reference compound] | fold | 0.798 |
| CCOC(=O)c1ccc(N2C(=O)C(c3ccccc3)N(c3ccccc3)C2=O)cc1 (stereo not shown) | fold | 0.454 |
